// data source = PubChem BioAssay AID2060891

tested on: K98450-129-R-PDC complex spheroid growth, percent test/control; test: Anticancer human tumor K98450-129-R-PDC patient-derived colon adenocarcinoma cell line growth inhibition [RAS]; conditions: second compound 0.0949 µM; first compound 0.1 µM; active compounds read low
Sorting guide: entries reporting viability, T/C beneath 20% go in the rule met pile, the rest go in the rule not met pile.

>  <compound>
C=CC(=O)Nc1cc(Nc2nccc(-c3cn(C)c4ccccc34)n2)c(OC)cc1N(C)CCN(C)C + CCn1c(-c2cccnc2C(C)OC)c2c3cc(ccc31)N1CCOC(CC(NC(=O)C(C(C)C)N(C)C(=O)C3(F)CCN(C(=O)C#CC(C)(C)N(C)C)CC3)C(=O)N3CCCC(N3)C(=O)OCC(C)(C)C2)C1

>  <target_desc>
K98450-129-R-PDC complex spheroid growth, percent test/control

>  <class_assignment>
rule met

$$$$
>  <compound>
C[C@@H](NC(=O)c1ncnc(N)c1Cl)c1ncc(C(=O)Nc2cc(C(F)(F)F)c(Cl)cn2)s1 + CCn1c(-c2cc(N3CCN(C)CC3)cnc2C(C)OC)c2c3cc(ccc31)-c1csc(n1)CC(NC(=O)C1CC1C)C(=O)N1CCCC(N1)C(=O)OCC(C)(C)C2

>  <target_desc>
K98450-129-R-PDC complex spheroid growth, percent test/control;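 note: luminescence used as a proxy for viable cell amount; spheroids exposed to agents for seven days before the viability readout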

>  <class_assignment>
rule not met

$$$$
>  <compound>
CC(C)NCC(C(=O)N1CCN(c2ncnc3c2C(C)CC3O)CC1)c1ccc(Cl)cc1 (stereo not given) + CCn1c(-c2cccnc2C(C)OC)c2c3cc(ccc31)N1CCOC(CC(NC(=O)C(C(C)C)N(C)C(=O)C3(F)CCN(C(=O)C#CC(C)(C)N(C)C)CC3)C(=O)N3CCCC(N3)C(=O)OCC(C)(C)C2)C1

>  <target_desc>
K98450-129-R-PDC complex spheroid growth, percent test/control;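 note: luminescence used as a proxy for viable cell amount; spheroids exposed to agents for seven days before the viability readout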

>  <class_assignment>
rule not met

$$$$
>  <compound>
CC1(O)CCCC1n1c(=O)c(C(F)F)cc2cnc(NC3CCN(S(C)(=O)=O)CC3)nc21 (stereo not given) + CCn1c(-c2cc(N3CCN(C)CC3)cnc2C(C)OC)c2c3cc(ccc31)-c1csc(n1)CC(NC(=O)C1CC1C)C(=O)N1CCCC(N1)C(=O)OCC(C)(C)C2

>  <target_desc>
K98450-129-R-PDC complex spheroid growth, percent test/control;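 note: luminescence used as a proxy for viable cell amount; spheroids exposed to agents for seven days before the viability readout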

>  <class_assignment>
rule not met

$$$$
>  <compound>
Cc1nc(N2CCC3(CC2)COC(C)C3N)c(CO)nc1Sc1ccnc(N)c1Cl (stereo not given) + CCn1c(-c2cc(N3CCN(C)CC3)cnc2C(C)OC)c2c3cc(ccc31)-c1csc(n1)CC(NC(=O)C1CC1C)C(=O)N1CCCC(N1)C(=O)OCC(C)(C)C2

>  <target_desc>
K98450-129-R-PDC complex spheroid growth, percent test/control;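 note: luminescence used as a proxy for viable cell amount; spheroids exposed to agents for seven days before the viability readout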

>  <class_assignment>
rule met

$$$$
